# System: Fusarium oxysporum
# Assay Remarks: Synergistic Growth Inhibition Assay (MIC / FIC index, resazurin) against Fusarium oxysporum
# Format: cell-based
# Measurement Conditions: Compound B (unsaturated aliphatic acid) alone; Fusarium oxysporum; 48 hours incubation
Recorded Metric: MIC (B) (µg/mL)
Could you give me the number in µg/mL? Just the number is fine.

For reference, reported MIC (B) for CCCCCCC/C=C/C(=O)O [Trans-2-decenoic acid, trans-2-decenoic acid] stands at 156.2

For reference, reported MIC (B) for CC/C=C/CC(=O)O [Trans-3-hexenoic acid, trans-3-hexenoic acid] stands at 156.2

For reference, reported MIC (B) for `C=CCCCC(=O)O` stands at 156.2

For reference, reported MIC (B) for CCCCC/C=C/C(=O)O [Trans-2-octenoic acid, trans-2-octenoic acid] stands at 156.2

For reference, reported MIC (B) for `C=CCCCCCC(=O)O` stands at 312.5
